System: N140
Assay: qHTS profiling for inhibitors of Plasmodium falciparum proliferation (AID 504749); note: nearly all actives have a fitted effect of over 60% in size; note: potency is the fitted concentration of half-maximal effect
Settings: P. falciparum in erythrocytes, SYBR Green DNA, 72 h; series mostly up to 28.7 µM
Inconclusive results are not listed. Active and inactive are the calls of the source. Calls come from the whole dose curve; as a rule, active = well fitted inhibition curve with a large enough effect; inconclusive = small, poorly fitted or top-dose-only effect; inactive = flat fitted curve, though single readings scatter.
measurement.label: Potency

- O=C1NC(=O)C2C3C=CC(C3)C12 (configuration not stated): inactive
- CCCCCCCCCCCCCCCC(=O)OC[C@H](O)[C@H]1OC[C@@H](O)[C@@H]1O: inactive
- CO[C@H]1C[C@@H]2CC[C@@H](C)[C@@](O)(O2)C(=O)C(=O)N2CCCC[C@H]2C(=O)O[C@H]([C@H](C)C[C@@H]2CC[C@@H](O)[C@H](OC)C2)CC(=O)[C@H](C)/C=C(\C)[C@@H](O)[C@@H](OC)C(=O)[C@H](C)C[C@H](C)/C=C/C=C/C=C/1C: 1.58 µM (active)
- COC(c1ccccc1)(c1ccccc1)C(Oc1nc(C)cc(C)n1)C(=O)O (configuration not stated): inactive
- CC(=O)OC1C([N+]2(C)CCCCC2)C[C@H]2C3CC[C@H]4C[C@H](OC(C)=O)C([N+]5(C)CCCCC5)CC4(C)C3CCC12C (some centres not stated): inactive
- C[C@@H]1CCN(C(=O)[C@H](CCCNC(=N)N)NS(=O)(=O)c2cccc3c2NC[C@H](C)C3)[C@@H](C(=O)O)C1: inactive
- C/C=C\C[C@H](C)[C@H](O)[C@H]1C(=O)N[C@@H](CC)C(=O)N(C)CC(=O)N(C)[C@@H](CC(C)C)C(=O)N[C@@H](C(C)C)C(=O)N(C)[C@@H](CC(C)C)C(=O)N[C@@H](C)C(=O)N[C@@H](C)C(=O)N(C)[C@@H](CC(C)C)C(=O)N(C)[C@@H](CC(C)C)C(=O)N(C)[C@@H](C(C)C)C(=O)N1C: 2.82 µM (active)
- CC1=C(/C=C/C(C)=C\C=C\C(C)=C\C=C\C=C(C)\C=C\C=C(C)\C=C\C2=C(C)C[C@@H](O)CC2(C)C)C(C)(C)C[C@H](O)C1: 7.08 µM (active)
- CC(=O)NC1[C@H]([C@H](O)[C@H](O)CO)OC(C(=O)O)=C[C@H]1N=C(N)N (some centres not stated): inactive
- Cc1ccccc1N1C(=O)c2cc(N)ccc2N/C1=C\F: inactive
- CC(=O)CC(c1ccccc1)C1C(=O)Oc2ccccc2C1=O (configuration not stated): inactive
- CC[C@@H](C)C(N)C(=O)O (some centres not stated): inactive
- Cc1ccc(/C=C2/C(=O)C3(C)CCC2C3(C)C)cc1 (configuration not stated): inactive
- CCC(C(=O)O)C1OC(C(C)C(O)C(C)C(=O)C(CC)C2OC3(C=CC(O)C4(CCC(C)(C5CCC(O)(CC)C(C)O5)O4)O3)C(C)CC2C)C(C)CC1C (configuration not stated): 0.141 µM (active)
- CC12C=CC(=O)C=C1[C@@H](F)CC1C2C(O)CC2(C)C1CC[C@]2(O)C(=O)CO (some centres not stated): inactive
- CNC1C(O)C(OC2C(N)CC(N)C(OC3OC(CN)=CCC3N)C2O)OCC1(C)O (configuration not stated): inactive
- NC(CSSCC(N)C(=O)O)C(=O)O (configuration not stated): inactive

----------
System: CP305
Assay: qHTS profiling for inhibitors of Plasmodium falciparum proliferation (AID 504749); note: nearly all actives have a fitted effect of over 60% in size
Conditions: P. falciparum in erythrocytes, SYBR Green DNA, 72 h; series mostly up to 28.7 µM
Records with an inconclusive call do not appear. Active and inactive are the calls of the source. Calls follow the shape of the dose curve; as a rule, active = well fitted inhibition curve with a large enough effect; inconclusive = small, poorly fitted or top-dose-only effect; inactive = flat fitted curve, though single readings scatter.
Outcomes: True for active, False for inactive

- C[C@]12CC[C@@H]3c4ccc(O)cc4C[C@@H](CCCCCCCCCS(=O)CCCC(F)(F)C(F)(F)F)C3[C@@H]1CC[C@@H]2O (stereo not given in full): True
- Cc1ccc(/C=C2/C(=O)C3(C)CCC2C3(C)C)cc1 (stereo not given): False
- OCC1O[C@H](Oc2ccc(O)cc2)C(O)C(O)C1O (stereo not given in full): False
- CCN(CC)C(=O)Nc1ccc(OC[C@H](O)CNC(C)(C)C)c(C(C)=O)c1: False
- O=C1[C@@H]2C[C@@H]3C[C@H]1C[C@@](O)(C3)C2: False
